Ref: ChEMBL document CHEMBL4417635

Reported inhibition is given for each of the following compounds.
- systemTested: Transmembrane protease serine 4 (Homo sapiens) (UniProt Q9NRS4)
- Sequence (Q9NRS4 whole entry, the tested form may be a part): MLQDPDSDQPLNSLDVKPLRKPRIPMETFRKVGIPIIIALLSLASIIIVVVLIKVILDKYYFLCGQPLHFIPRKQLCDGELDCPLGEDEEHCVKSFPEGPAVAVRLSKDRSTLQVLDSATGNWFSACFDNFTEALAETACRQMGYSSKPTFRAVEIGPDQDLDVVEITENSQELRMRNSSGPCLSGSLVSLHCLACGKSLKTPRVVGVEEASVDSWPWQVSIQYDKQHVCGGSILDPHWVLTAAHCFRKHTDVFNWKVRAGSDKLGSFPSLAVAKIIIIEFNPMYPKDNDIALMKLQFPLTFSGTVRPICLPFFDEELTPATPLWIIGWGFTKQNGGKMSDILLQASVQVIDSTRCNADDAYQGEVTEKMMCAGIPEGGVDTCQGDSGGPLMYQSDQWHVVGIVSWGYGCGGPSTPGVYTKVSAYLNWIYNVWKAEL
- protocolSummary: Inhibition of TMPRSS4 serine protease domain (Val 205 to Leu 437 residues) (unknown origin) expressed in Escherichia coli BL21 (DE3) at 100 uM using […]-Gln-Ala-Arg-7-amido-4-methylcoumarin hydrochloride substrate and measured for 5 mins at 5 mins intervals by fluorescence based assay relative to control
Form entry: value (%) — number only.

Below, 4 compounds whose answers are already recorded.
In [3]: df
Out[3]:
                           chemicalsmiles  unitsymbol  numericvalue
0        N#Cc1cccc(NC(=O)c2cc(Cl)ccc2O)c1           %            88
1  O=C(Nc1cc(C(F)(F)F)ccc1F)c1cc(Cl)ccc1O           %           100
2       Cc1cc(C)cc(NC(=O)c2cc(Cl)ccc2O)c1           %            56
3         O=C(Nc1ccnc(Cl)c1)c1cc(Cl)ccc1O           %            21

## Task Form field: reported inhibition of `O=C(Nc1ccccc1)c1cc(Cl)ccc1O`
## Result 75

## Task Record: `Cc1cc(C)nc(NC(=O)c2cc(Cl)ccc2O)n1`
## Result 0

## Task Next up: `N#Cc1ccc(NC(=O)c2cc(Cl)ccc2O)cc1C(F)(F)F`
## Result 100

## Task For `O=C(Nc1ccc(Cl)cn1)c1cc(Cl)ccc1O` then?
## Result 55

## Task Same for `O=C(Nc1nnc(C(F)(F)F)s1)c1cc(Cl)ccc1O`
## Result 100

## Task Now give it for `O=C(Nc1cc(Br)cc(C(F)(F)F)c1)c1cc(Cl)ccc1O` too.
## Result 100

## Task And the next one, `O=C(Nc1cnc2ccccc2c1)c1cc(Cl)ccc1O` ?
## Result 75
